Test: Mycobacterium tuberculosis growth inhibition, primary screen (AID 1259343)
Settings: at 10 µM
The whole screen tested about 6,200 compounds, of which about 2,900 (47%) were called active. Rule as the data show it: active = inhibition above about 50%; inactive = the rest. So high a share suggests a set chosen from earlier hits. This is one part of the list.
Parameter call: string, one of active, inactive

Take a look at these entries with their results.
# Molecule, Classification
measured = [
    ("Cc1cc(NC(=O)c2ccc(F)c(F)c2)n(-c2nc3c(c(=O)[nH]2)CCC3)n1", "inactive"),
    ("CCCN(C)C(=O)c1ccc2c(c1)C(=O)N(c1ccc(OCC)cc1)C2=O", "inactive"),
    ("Cc1ncc(COc2ccc(-c3ccc(C#N)cc3)cc2)s1", "inactive"),
    ("Cc1cccc(-c2ccc(NC(=O)C3CCN(C(=O)CC4CCCC4)CC3)cc2)c1", "active"),
    ("COc1ccc(-c2ccc(S(=O)(=O)N3CCCCCC3)cc2)cc1", "active"),
    ("COc1ccc(CN2CCN(C(c3ccc(F)cc3)c3ccc(F)cc3)CC2)c(OC)c1OC", "inactive"),
    ("Cc1ccc(CNS(=O)(=O)Cc2ccc(F)cc2)cc1F", "inactive"),
    ("Clc1ccc(Cl)c(SCCc2ccccn2)c1", "active"),
]

[in] Outcome logged for Clc1ccc2nc(SCc3nnc(C4CCC4)o3)[nH]c2c1 in this assay:
[out] inactive

[in] Check O=C(COc1ccc(F)cc1)NCCc1ccc(OC(F)F)cc1 too.
[out] active

[in] Check c1ccc(Cc2nnc(SCc3cccc4ccccc34)o2)cc1 too.
[out] inactive

[in] Check O=C(O)/C=C/C=C/c1ccccc1 too.
[out] inactive

[in] Check Brc1ccc(-n2nc(-c3ccccc3)n[n+]2-c2nnn[n-]2)cc1 too.
[out] inactive

[in] Check COc1cccc(-c2nc3ccc(-c4cccc(Cl)c4)cn3c2CN2CCNCC2)c1 too.
[out] inactive

[in] Check CCc1ccc(N2C(=O)C3N=NN(Cc4nc(-c5cccc(Cl)c5)oc4C)C3C2=O)cc1 (stereo unspecified) too.
[out] active

[in] Check CC(C(=O)NCc1cccs1)S(=O)(=O)c1ccc(C(F)(F)F)cn1 (stereo unspecified) too.
[out] inactive

[in] Check Cc1cccc(-c2ccc(NC(=O)C3CCN(C(=O)CC4=CCCCC4)CC3)cc2)c1 too.
[out] active

[in] Check C=CCC(=O)N1CCC(C(=O)Nc2ccc(-c3cccc(C)c3)cc2)CC1 too.
[out] active

[in] Check CCc1nnc(CNc2ccc3c(c2)OC(F)(F)O3)o1 too.
[out] inactive

[in] Check Cc1ccc(S(=O)(=O)N2CCC(NC(=O)C(C)Oc3ccc(Cl)cc3Cl)CC2)cc1 (stereo unspecified) too.
[out] inactive

[in] Check CC(NS(=O)(=O)CC1CCCCC1)c1cc2ccccc2o1 (stereo unspecified) too.
[out] active

[in] Check CCc1ccc(N2C(=O)C3N=NN(Cc4cccc(C)c4)C3C2=O)cc1 (stereo unspecified) too.
[out] active

[in] Check Cc1cc(I)ccc1N too.
[out] active
